Reported Selectivity (6 v 8) (fold) values for the following molecules.
Biological target: Full length Human HDAC6 (Homo sapiens)
Sequence (Q9UBN7 1-1215): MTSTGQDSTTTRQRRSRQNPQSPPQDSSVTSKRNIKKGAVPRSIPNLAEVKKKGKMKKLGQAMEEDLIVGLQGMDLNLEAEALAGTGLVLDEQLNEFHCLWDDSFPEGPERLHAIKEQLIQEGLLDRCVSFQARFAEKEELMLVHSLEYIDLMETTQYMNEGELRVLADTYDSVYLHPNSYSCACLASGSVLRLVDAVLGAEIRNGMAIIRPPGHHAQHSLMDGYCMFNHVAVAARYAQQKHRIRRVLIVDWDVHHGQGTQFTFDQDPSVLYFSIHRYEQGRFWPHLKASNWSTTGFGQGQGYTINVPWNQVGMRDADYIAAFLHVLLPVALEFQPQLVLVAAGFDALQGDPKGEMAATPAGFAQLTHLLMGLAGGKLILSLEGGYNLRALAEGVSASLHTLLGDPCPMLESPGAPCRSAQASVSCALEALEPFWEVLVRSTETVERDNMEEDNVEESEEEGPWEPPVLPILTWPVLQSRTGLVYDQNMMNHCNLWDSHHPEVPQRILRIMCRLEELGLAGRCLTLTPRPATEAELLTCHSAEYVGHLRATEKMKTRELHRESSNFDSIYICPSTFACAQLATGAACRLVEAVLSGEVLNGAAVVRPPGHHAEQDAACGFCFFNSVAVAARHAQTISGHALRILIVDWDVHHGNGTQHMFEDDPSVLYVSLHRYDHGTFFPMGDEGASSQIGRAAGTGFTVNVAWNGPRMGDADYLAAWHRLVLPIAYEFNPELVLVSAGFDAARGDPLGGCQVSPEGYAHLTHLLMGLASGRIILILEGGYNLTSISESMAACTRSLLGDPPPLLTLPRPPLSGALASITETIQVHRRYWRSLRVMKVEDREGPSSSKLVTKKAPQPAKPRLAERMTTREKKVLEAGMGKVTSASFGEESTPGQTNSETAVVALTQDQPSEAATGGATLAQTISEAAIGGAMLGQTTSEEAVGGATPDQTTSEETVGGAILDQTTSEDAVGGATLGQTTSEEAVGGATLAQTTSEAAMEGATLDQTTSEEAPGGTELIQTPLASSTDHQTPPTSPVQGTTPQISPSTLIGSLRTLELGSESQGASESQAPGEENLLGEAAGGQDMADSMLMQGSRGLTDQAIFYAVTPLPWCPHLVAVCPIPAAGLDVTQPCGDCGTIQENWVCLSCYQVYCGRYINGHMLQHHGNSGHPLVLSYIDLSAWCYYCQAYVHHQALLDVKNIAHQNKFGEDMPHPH
Conditions: ratio of HDAC8 IC50/HDAC6 IC50; Table 1, number
Unit fold implied. Number only.

// known answers, use as guide
>  <molecule>
O=C(NO)c1ccc2c(c1F)CCN(CC13CC4CC(CC(C4)C1)C3)C2 [compound 21]

>  <system_under_test>
Full length Human HDAC6 (Homo sapiens)

>  <Selectivity (6 v 8) (fold)>
50.2

$$$$
>  <molecule>
O=C(NO)c1ccc(CN2CC3(CCCC3)C2)c(F)c1 [compound 69]

>  <system_under_test>
Full length Human HDAC6 (Homo sapiens)

>  <Selectivity (6 v 8) (fold)>
20.6

$$$$
>  <molecule>
O=C1CC2CCCC(C1)N2Cc1ccc(C(=O)NO)cc1F [compound 62]

>  <system_under_test>
Full length Human HDAC6 (Homo sapiens)

>  <Selectivity (6 v 8) (fold)>
30.6

$$$$
>  <molecule>
O=C(NO)c1ccc2c(c1)CCN1CCC[C@H]21 (single isomer, unassigned) [compound 148]

>  <system_under_test>
Full length Human HDAC6 (Homo sapiens)

>  <Selectivity (6 v 8) (fold)>
1.9

$$$$

Next:
Reported Selectivity (6 v 8) (fold) for O=C(NO)c1ccc2c(c1)CCN(CC13CC4CC(CC(C4)C1)C3)C2 [compound 26] : what is it?
69.7

* * *

Target: Full length Human HDAC6 (Homo sapiens, UniProt Q9UBN7)
Settings: ratio of HDAC8 IC50/HDAC6 IC50; Table 1, number
experimental_endpoint: Selectivity (6 v 8) (fold)
Report the figure in fold without appending any unit label.

>  <compound>
O=C1CC2CCC(C1)N2Cc1ccc(C(=O)NO)cc1F [compound 63]

>  <units_of_measure>
fold

>  <Selectivity (6 v 8) (fold)>
42.1

$$$$

For Full length Human HDAC6 (Homo sapiens, UniProt Q9UBN7), provide Selectivity (6 v 8) (fold) of O=C(NO)c1ccc(CN2CCCOCC2)c(F)c1 [compound 47] please.
22.3

What is its Selectivity (6 v 8) (fold) for Full length Human HDAC6 (Homo sapiens, UniProt Q9UBN7)? Entry: O=C(NO)c1ccc2c(c1)C[C@@H]1CCCN1C2 (single isomer, unassigned) [compound 121]
80.9

Lookup: Selectivity (6 v 8) (fold) / Full length Human HDAC6 (Homo sapiens, UniProt Q9UBN7) / CC1(C)C[C@@H]2Cc3cc(C(=O)NO)cc(F)c3CN2C1 (single isomer, unassigned) [compound 126]
37.4

# returns recorded Selectivity (6 v 8) (fold) (system: Full length Human HDAC6 (Homo sapiens, UniProt Q9UBN7)) for O=C(NO)c1cc(F)c2c(c1)CCN(C1CCC13CCCCC3)C2 (centres unmarked) [compound 15]
209.2

Full length Human HDAC6 (Homo sapiens, UniProt Q9UBN7) / Selectivity (6 v 8) (fold) / O=C(NO)c1cc(F)c2c(c1)CCN([C@@H]1CCC13CCCCC3)C2 (single isomer, unassigned) [compound 8] : value?
198.5

Lab request: please report Selectivity (6 v 8) (fold) under test system Full length Human HDAC6 (Homo sapiens, UniProt Q9UBN7) for O=C(NO)c1ccc2c(c1)CCN1CCCC[C@@H]21 (single isomer, unassigned) [compound 89]
3.1

* * *

Data export: pIC50 values recorded with Human HDAC4 aa 101-1084(end) (Homo sapiens, UniProt P56524).
Sequence (P56524 101-1084): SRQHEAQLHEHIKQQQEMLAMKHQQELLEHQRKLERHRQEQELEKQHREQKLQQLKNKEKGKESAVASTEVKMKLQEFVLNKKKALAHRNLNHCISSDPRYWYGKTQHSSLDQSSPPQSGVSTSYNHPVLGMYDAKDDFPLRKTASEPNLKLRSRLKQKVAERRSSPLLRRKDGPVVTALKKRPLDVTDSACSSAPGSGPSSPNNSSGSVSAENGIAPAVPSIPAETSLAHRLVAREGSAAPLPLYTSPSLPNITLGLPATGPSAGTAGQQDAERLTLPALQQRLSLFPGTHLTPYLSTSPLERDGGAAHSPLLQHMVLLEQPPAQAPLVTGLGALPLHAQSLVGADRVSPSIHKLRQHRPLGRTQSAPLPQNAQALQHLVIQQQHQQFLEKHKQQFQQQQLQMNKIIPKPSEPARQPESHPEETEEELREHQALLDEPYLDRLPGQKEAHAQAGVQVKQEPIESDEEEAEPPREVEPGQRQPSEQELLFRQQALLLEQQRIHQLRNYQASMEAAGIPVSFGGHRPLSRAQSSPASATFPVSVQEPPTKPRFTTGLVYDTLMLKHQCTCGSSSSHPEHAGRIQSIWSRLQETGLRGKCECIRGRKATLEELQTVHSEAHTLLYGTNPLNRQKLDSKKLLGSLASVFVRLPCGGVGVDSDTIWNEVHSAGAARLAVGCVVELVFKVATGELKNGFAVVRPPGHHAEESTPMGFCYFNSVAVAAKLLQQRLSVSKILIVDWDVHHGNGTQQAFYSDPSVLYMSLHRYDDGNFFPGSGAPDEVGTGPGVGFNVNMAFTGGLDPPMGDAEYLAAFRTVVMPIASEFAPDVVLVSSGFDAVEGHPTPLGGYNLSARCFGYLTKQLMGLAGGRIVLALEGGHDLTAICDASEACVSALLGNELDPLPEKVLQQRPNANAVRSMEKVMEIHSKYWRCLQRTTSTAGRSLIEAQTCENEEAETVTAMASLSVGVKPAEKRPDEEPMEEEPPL
pIC50: −log10 of the molar value.

>  <compound>
O=C(NO)c1ccc(CN2C[C@H]3CC[C@@H]2CO3)c(F)c1 (single isomer, unassigned)

>  <result>
5.00 to 6.00

$$$$
>  <compound>
O=C(NO)c1cc(F)c2c(c1)CCN(CC13CC4CC(CC(C4)C1)C3)C2

>  <result>
4.00 to 5.00

$$$$
>  <compound>
O=C(NO)c1cc(F)c2c(c1)CCN1CCC[C@@H]21 (single isomer, unassigned)

>  <result>
5.00 to 6.00

$$$$
>  <compound>
O=C(NO)c1ccc(CN2CC3CCC2CO3)c(F)c1 (stereo not drawn)

>  <result>
5.00 to 6.00

$$$$
>  <compound>
O=C(NO)c1ccc(CN2C[C@@H]3CC[C@H]2CO3)c(F)c1 (single isomer, unassigned)

>  <result>
4.00 to 5.00

$$$$

Now turn to the next compound.
Checklist item: pIC50 tested on Human HDAC4 aa 101-1084(end) (Homo sapiens, UniProt P56524), entry O=C(NO)c1ccc(CN2CC3CCC(C2)O3)c(F)c1 , value?
5.00 to 6.00

* * *

Listing of recorded pIC50 by entry.
Target: Human HDAC7 aa 518-end (Homo sapiens, UniProt Q8WUI4)
Sequence (Q8WUI4 518-952 limits assumed): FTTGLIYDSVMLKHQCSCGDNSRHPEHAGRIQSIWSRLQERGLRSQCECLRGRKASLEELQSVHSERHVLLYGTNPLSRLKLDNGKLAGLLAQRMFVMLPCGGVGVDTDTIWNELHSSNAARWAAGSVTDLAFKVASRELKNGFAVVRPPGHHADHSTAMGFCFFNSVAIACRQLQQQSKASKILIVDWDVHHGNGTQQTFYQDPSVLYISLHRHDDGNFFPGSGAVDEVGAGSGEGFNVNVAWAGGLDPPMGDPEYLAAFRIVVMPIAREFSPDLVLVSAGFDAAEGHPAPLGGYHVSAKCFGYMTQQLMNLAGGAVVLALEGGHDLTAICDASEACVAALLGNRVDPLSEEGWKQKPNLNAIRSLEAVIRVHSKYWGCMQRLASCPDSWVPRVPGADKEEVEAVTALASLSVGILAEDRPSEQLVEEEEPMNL
pIC50: −log10 of the molar value.

Illustrative cases are given below, each with its answer.
>  <compound>
O=C(NO)c1ccc(CN2C3CCC2COC3)c(F)c1

>  <pIC50>
5.00 to 6.00

$$$$
>  <compound>
C[C@H]1CC[C@H]2c3c(F)cc(C(=O)NO)cc3CCN12 (single isomer, unassigned)

>  <pIC50>
6.00 to 7.00

$$$$
>  <compound>
O=C(NO)c1cc(F)c2c(c1)CCN(C1COC1)C2

>  <pIC50>
5.00 to 6.00

$$$$
>  <compound>
O=C(NO)c1cc(F)c2c(c1)C[C@H]1CCCCN1C2 (single isomer, unassigned)

>  <pIC50>
5.00 to 6.00

$$$$
>  <compound>
CC(C)(C)CN1CCc2cc(C(=O)NO)cc(F)c2C1

>  <pIC50>
< 4.00

$$$$
>  <compound>
O=C(NO)c1cc(F)c2c(c1)C[C@@H]1CCCCN1C2 (single isomer, unassigned)

>  <pIC50>
5.00 to 6.00

$$$$

Report pIC50 for O=C(NO)c1cc(F)c2c(c1)CCN(C1CC3(COC3)C1)C2 please.
4.00 to 5.00

# lookup: pIC50 of O=C(NO)c1cc(F)c2c(c1)CCN([C@@H]1CCC3(CCCCC3)C1)C2 (single isomer, unassigned)
4.00 to 5.00
